Assay Explanation: ABTS radical cation scavenging activity assay
Reported Conditions: ABTS^•+ 100 μM, ethanol, 1 h
Binarize IC50 at 20 µM; below is T, at or above is F.

{"columns": ["Compound", "Class Label"],
 "data": [
  ["C=C[c-]1cccc1.[Fe+2].c1ccc(-[c-]2cccc2)nc1", "T"],
  ["[Fe+2].c1cc[cH-]c1.c1ccc(-[c-]2cccc2)nc1", "T"],
  ["[Fe+2].c1cc[cH-]c1.c1ccc(-c2cccc(-[c-]3cccc3)n2)nc1", "F"],
  ["C=C[c-]1cccc1.[Fe+2].c1cc[cH-]c1 [compound 9, vinylferrocene, reference compound]", "T"],
  ["[Fe+2].c1cc[c-](-c2ccnnc2)c1.c1cc[cH-]c1", "T"],
  ["C=C(C)[c-]1cccc1.[Fe+2].c1cc[cH-]c1 [compound 8, isopropenylferrocene, reference compound]", "F"],
  ["C=C(C)[c-]1cccc1.[Fe+2].c1ccc2nc(-[c-]3cccc3)ccc2c1", "T"],
  ["C=C(C)[c-]1cccc1.[Fe+2].c1cc[c-](-c2ccnnc2)c1", "T"],
  ["C=C(C)[c-]1cccc1.[Fe+2].c1ccc(-[c-]2cccc2)nc1", "T"]
]}
